system: Danio rerio larvae (5 dpf); assay: startle response to 20-s acoustic pulses, difference vs DMSO (percentage points (treated minus DMSO)); higher = more of the behaviour than the DMSO vehicle control; conditions: 10 µM; exposure time: 3 h pre-incubation + 3 h imaging
Structures can show the parent of a compound that is named as a salt.
Output schema: class label derived from startle response to 20-s acoustic pulses. Mapping: lower = under -0.08, middle = from -0.08 up to 2, upper = 2 and over

Before answering, review these 5 worked examples.
molecule="Cc1cn([C@H]2C=C[C@@H](CO)O2)c(=O)[nH]c1=O [Stavudine]" grouplabel=lower
molecule="CN(CCOc1ccc(NS(C)(=O)=O)cc1)CCc1ccc(NS(C)(=O)=O)cc1 [Dofetilide]" grouplabel=middle
molecule="Nc1ccn([C@@H]2O[C@H](CO)[C@@H](O)C2(F)F)c(=O)n1 [Gemcitabine hydrochloride]" grouplabel=upper
molecule="Cc1nnc(C(C)C)n1C1C[C@H]2CC[C@@H](C1)N2CC[C@H](NC(=O)C1CCC(F)(F)CC1)c1ccccc1 (stereo in doubt) [Maraviroc]" grouplabel=lower
molecule="O=c1[nH]c(=O)n([C@H]2C[C@H](O)[C@@H](CO)O2)cc1C(F)(F)F [Trifluorothymidine]" grouplabel=middle

Prompt: Which band does COC(c1ccccc1)(c1ccccc1)[C@H](Oc1nc(C)cc(C)n1)C(=O)O [Ambrisentan] fall in?
Completion: upper

Prompt: Also need Cc1ccccc1C(=O)Nc1ccc(C(=O)N2CCCC(O)c3cc(Cl)ccc32)c(C)c1 (stereo unspecified) [Tolvaptan] , thanks.
Completion: upper

----------
tested on: Danio rerio larvae (5 dpf); experiment: activity during first hour (no stimuli), difference vs DMSO (percentage points (treated minus DMSO)); higher = more of the behaviour than the DMSO vehicle control; conditions: 10 µM; exposure time: 3 h pre-incubation + 3 h imaging
Where a name gives a salt, the structure may show the parent alone.
metricName: activity during first hour
One number for each entry.

compound="COc1cc2ncnc(Nc3ccc(F)c(Cl)c3)c2cc1OCCCN1CCOCC1 [Iressa]" valueobserved=-5.98
compound="C=C1[C@H](CO)[C@@H](O)C[C@@H]1n1cnc2c(=O)[nH]c(N)nc21 [Entecavir]" valueobserved=-1.96
compound="CCOC(=O)C1=C(C)NC(C)=C(C(=O)OC)C1c1cccc(Cl)c1Cl (configuration not stated) [Felodipine]" valueobserved=-12.9
compound="Nc1nc(F)nc2c1ncn2[C@@H]1O[C@H](CO)[C@@H](O)[C@@H]1O [Fludarabine]" valueobserved=3.66
compound="Nc1nc(Cl)nc2c1ncn2[C@@H]1O[C@H](CO)[C@@H](O)[C@@H]1F [Clofarabine]" valueobserved=-3.77

Take each entry in turn and give its activity during first hour.
1. NS(=O)(=O)Cc1noc2ccccc12 [Zonisamide]
2. NC(=O)c1ncn([C@@H]2O[C@H](CO)[C@@H](O)[C@H]2O)n1 [Ribavirin]

Completion:
3.75
1.58

Take each entry in turn and give its activity during first hour.
1. Clc1ccccc1C(c1ccccc1)(c1ccccc1)n1ccnc1 [Clotrimazole]
2. O=c1[nH]c(=O)n([C@H]2C[C@H](O)[C@@H](CO)O2)cc1C(F)(F)F [Trifluorothymidine]
3. O=C(O[C@@H]1C[C@@H]2C[C@H]3C[C@H](C1)N2CC3=O)c1c[nH]c2ccccc12 [Dolasetron mesylate]
4. COc1cccc2c1C(=O)c1c(O)c3c(c(O)c1C2=O)C[C@@](O)(C(=O)CO)C[C@@H]3O[C@H]1C[C@H](N)[C@H](O)[C@H](C)O1 [Doxorubicin hydrochloride]

Completion:
1. -21.6
2. 1.96
3. -1.16
4. -5.82

Take each entry in turn and give its activity during first hour.
1. CCCc1nc(C(C)(C)O)c(C(=O)O)n1Cc1ccc(-c2ccccc2-c2nnn[nH]2)cc1 [Olmesartan]
2. Cc1cc(C2CCCCC2)n(O)c(=O)c1 [Ciclopirox]
3. CN(C)CCc1c[nH]c2ccc(Cn3cncn3)cc12 [Rizatriptan benzoate]

Completion:
1. 12.1
2. 2.44
3. -2.37

----------
system: Danio rerio larvae (5 dpf); assay: activity during period 15 (no stimuli), difference vs DMSO (percentage points (treated minus DMSO)); higher = more of the behaviour than the DMSO vehicle control; conditions: 10 µM; exposure time: 3 h pre-incubation + 3 h imaging
Counter-ions that a name gives are not always drawn.
metricName: activity during period 15
One number for each entry.

Solved cases below.
compound=CCOc1nc2cccc(C(=O)O)c2n1Cc1ccc(-c2ccccc2-c2nnn[nH]2)cc1 targetortestsystem="Danio rerio larvae (5 dpf)" valueobserved=-1.51
compound="CN(C)C(=N)NC(=N)N [Metformin hydrochloride]" targetortestsystem="Danio rerio larvae (5 dpf)" valueobserved=-4.35
compound="CC(C)(C)NC(=O)[C@@H]1C[C@@H]2CCCC[C@@H]2CN1C[C@@H](O)[C@H](Cc1ccccc1)NC(=O)[C@H](CC(N)=O)NC(=O)c1ccc2ccccc2n1 [Saquinavir mesylate]" targetortestsystem="Danio rerio larvae (5 dpf)" valueobserved=-12.8

Here's the next entry for you.
Prompt: Given CCOc1ccccc1OCCN[C@H](C)Cc1ccc(OC)c(S(N)(=O)=O)c1 [Tamsulosin hydrochloride] , state its recorded activity during period 15.
Completion: 2.6

----------
test system: Danio rerio larvae (5 dpf); experiment: excitability to 1-s acoustic pulses, difference vs DMSO (percentage points (treated minus DMSO)); higher = more of the behaviour than the DMSO vehicle control; settings: 10 µM; exposure time: 3 h pre-incubation + 3 h imaging
Structures can show the parent of a compound that is named as a salt.
Assignment: determine reported excitability to 1-s acoustic pulses for the given molecules.
Answers are plain numbers.

Solved cases below.
molecule="CC(C)Nc1cccnc1N1CCN(C(=O)c2cc3cc(NS(C)(=O)=O)ccc3[nH]2)CC1 [Delavirdine mesylate]" valueobserved=0.884
molecule=CC(C)c1ccc2oc3nc(N)c(C(=O)O)cc3c(=O)c2c1 valueobserved=6.32
molecule="CN1CCC[C@@H]1CCO[C@](C)(c1ccccc1)c1ccc(Cl)cc1 [Clemastine fumarate]" valueobserved=15.4

Take each entry in turn and give its excitability to 1-s acoustic pulses.
1. C[C@H]1C[C@@H]2[C@H]([C@@H](O)C[C@@]3(C)[C@H]2CC[C@]3(O)C(=O)CO)[C@@]2(C)C=CC(=O)C=C12
2. CC(C)C(=O)OCC(=O)[C@@]12O[C@H](C3CCCCC3)O[C@@H]1C[C@H]1[C@@H]3CCC4=CC(=O)C=C[C@]4(C)[C@H]3[C@@H](O)C[C@@]12C [Ciclesonide]
3. OCCN1C[C@H](O)[C@@H](O)[C@H](O)[C@H]1CO
4. CC(C)C(=O)Nc1ccc([N+](=O)[O-])c(C(F)(F)F)c1 [Flutamide]

Completion:
0.503
4.96
5.41
-5.4

----------
tested on: Danio rerio larvae (5 dpf); assay: optomotor response to blue moving lines, difference vs DMSO (percentage points (treated minus DMSO)); higher = more of the behaviour than the DMSO vehicle control; conditions: 10 µM; exposure time: 3 h pre-incubation + 3 h imaging
Structures can show the parent of a compound that is named as a salt.
metricName: optomotor response to blue moving lines
Give bare numbers.

Solved cases below.
compound="CN1CCN(CCCN2c3ccccc3Sc3ccc(Cl)cc32)CC1 [Prochlorperazine dimaleate]" valueobserved=12.2
compound="CC(C)(C(=O)O)c1ccc(C(O)CCCN2CCC(C(O)(c3ccccc3)c3ccccc3)CC2)cc1 (stereo not drawn) [Fexofenadine hydrochloride]" valueobserved=4.47
compound="Nc1cc(N2CCCCC2)nc(N)[n+]1[O-] [Minoxidil]" valueobserved=-6.76
compound="CC(C)OC(=O)C(C)(C)Oc1ccc(C(=O)c2ccc(Cl)cc2)cc1 [Fenofibrate]" valueobserved=12.7
compound="Nc1ccn([C@@H]2O[C@H](CO)[C@@H](O)C2(F)F)c(=O)n1 [Gemcitabine hydrochloride]" valueobserved=3.79

Take each entry in turn and give its optomotor response to blue moving lines.
1. Cc1cc2c(s1)Nc1ccccc1N=C2N1CCN(C)CC1 [Olanzapine]
2. CN1CCN2c3ncccc3Cc3ccccc3C2C1 (stereo not drawn) [Mirtazapine]
3. CCc1ccc(CCOc2ccc(CC3SC(=O)NC3=O)cc2)nc1 (stereo not drawn) [Pioglitazone hydrochloride]

Completion:
1. 16
2. -2.95
3. -1.78

----------
test system: Danio rerio larvae (5 dpf); assay: optomotor response to fast red moving lines, difference vs DMSO (percentage points (treated minus DMSO)); higher = more of the behaviour than the DMSO vehicle control; settings: 10 µM; exposure time: 3 h pre-incubation + 3 h imaging
Structures can show the parent of a compound that is named as a salt.
metricName: optomotor response
Numbers only.

Solved cases below.
compound="CC(c1cc2ccccc2s1)N(O)C(N)=O (stereo not drawn)" metricname="optomotor response" valueobserved=-16.8
compound=CCCc1nc(C(C)(C)O)c(C(=O)O)n1Cc1ccc(-c2ccccc2-c2nnn[nH]2)cc1 metricname="optomotor response" valueobserved=-5.64
compound=CCOC(=O)[C@H](CCc1ccccc1)N[C@@H](C)C(=O)N1[C@H](C(=O)O)C[C@@H]2CCC[C@@H]21 metricname="optomotor response" valueobserved=-1.3

Take each entry in turn and give its optomotor response.
1. CC(CCc1ccc(O)cc1)NCCc1ccc(O)c(O)c1 (stereo not drawn) [Dobutamine hydrochloride]
2. CC1CNc2c(cccc2S(=O)(=O)N[C@@H](CCCNC(=N)N)C(=O)N2CC[C@@H](C)C[C@@H]2C(=O)O)C1 (stereo partly drawn)

Completion:
1: -7.53; 2: -3.36

Take each entry in turn and give its optomotor response.
1. CNCc1ccc(-c2[nH]c3cc(F)cc4c3c2CCNC4=O)cc1 [Rucaparib camsylate]
2. OCCOCCN1CCN(C2=Nc3ccccc3Sc3ccccc32)CC1 [Quetiapine hemifumarate]

Completion:
1: 3.57; 2: -5.91

Prompt: Given `CN1CC(=O)N2[C@H](c3ccc4c(c3)OCO4)c3[nH]c4ccccc4c3C[C@@H]2C1=O` , state its recorded optomotor response.
Completion: -10.2
